Data credit: patent US11072581B2

# Experimental target: SauLRS (leucyl-tRNA synthetase from Staphylococcus aureus) (Staphylococcus aureus, UniProt Q2FXH2)
# Construct: made in house; host or cells: Escherichia coli M15
# Sequence (Q2FXH2 1-805): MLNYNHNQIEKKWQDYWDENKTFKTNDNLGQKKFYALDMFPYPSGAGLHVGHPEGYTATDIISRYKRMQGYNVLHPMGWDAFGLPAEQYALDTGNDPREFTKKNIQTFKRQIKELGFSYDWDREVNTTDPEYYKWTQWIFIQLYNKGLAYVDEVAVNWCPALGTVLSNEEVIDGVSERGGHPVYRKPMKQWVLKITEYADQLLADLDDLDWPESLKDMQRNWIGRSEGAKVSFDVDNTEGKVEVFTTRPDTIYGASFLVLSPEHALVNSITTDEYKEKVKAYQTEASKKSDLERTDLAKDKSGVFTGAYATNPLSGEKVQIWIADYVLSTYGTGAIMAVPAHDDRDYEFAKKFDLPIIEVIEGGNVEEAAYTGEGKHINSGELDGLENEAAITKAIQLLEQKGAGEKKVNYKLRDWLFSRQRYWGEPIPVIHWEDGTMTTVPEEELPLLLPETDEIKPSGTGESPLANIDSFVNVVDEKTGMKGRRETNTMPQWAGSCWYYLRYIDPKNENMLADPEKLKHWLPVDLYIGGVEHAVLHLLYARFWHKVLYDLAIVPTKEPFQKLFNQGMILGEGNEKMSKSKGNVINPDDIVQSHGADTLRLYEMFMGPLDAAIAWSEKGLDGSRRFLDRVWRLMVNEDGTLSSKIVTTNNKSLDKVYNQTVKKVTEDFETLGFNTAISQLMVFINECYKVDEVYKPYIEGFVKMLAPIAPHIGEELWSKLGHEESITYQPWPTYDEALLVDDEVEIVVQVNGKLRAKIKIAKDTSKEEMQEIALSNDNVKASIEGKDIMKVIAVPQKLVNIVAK
# Test name: aaRS aminoacylation assay (ATP consumption), SauLRS
# Assay type: biochemical
# Condition parameters: i.a. = inactive at a concentration below 50 uM; read-out: IC50 SauLRS
Counter-ions that a name gives are not always drawn.
Recorded measurements of IC50, one per entry
Your answer should be a plain number; it is taken to be in µM.

{"Compound": "CC(C)C[C@H](N)C(=O)NS(=O)(=O)c1cccc(-c2ccnc(N)n2)c1", "Measure unit": "µM", "IC50": 2.18}
{"Compound": "CC(C)C[C@H](N)C(=O)NS(=O)(=O)c1ccc(Oc2ccccc2)cc1", "Measure unit": "µM", "IC50": 16.3}
{"Compound": "CC(C)C[C@H](N)C(=O)NS(=O)(=O)c1cccc2c1CNCC2", "Measure unit": "µM", "IC50": 20}
{"Compound": "CC(C)C[C@H](N)C(=O)NS(=O)(=O)c1cccc(-c2ccnc(N)c2)c1", "Measure unit": "µM", "IC50": 0.33}
{"Compound": "CC(C)C[C@H](N)C(=O)NS(=O)(=O)c1ccc(-c2ccccc2)cc1", "Measure unit": "µM", "IC50": 11.3}
{"Compound": "CC(C)C[C@H](N)C(=O)NS(=O)(=O)c1cccc(-c2cc(-c3ccccc3)nc(N)n2)c1", "Measure unit": "µM", "IC50": 3}

Determine its reported IC50: CC(C)C[C@H](N)C(=O)NS(=O)(=O)c1cccc(-c2nc(N)nc3nc[nH]c23)c1 1.11

Determine its reported IC50: CC(C)C[C@H](N)C(=O)NS(=O)(=O)c1ccc2ccccc2c1 1

Determine its reported IC50: CC(C)C[C@H](N)C(=O)NS(=O)(=O)c1cccc(-c2ccnc(O)n2)c1 13.9

Determine its reported IC50: CC(C)C[C@H](N)C(=O)NS(=O)(=O)c1cccc2c1OCCC2 14.1

Determine its reported IC50: CC(C)C[C@H](N)C(=O)NS(=O)(=O)c1ccc(Br)c2ccncc12 [Compound 5.22, trifluoroacetate] 11.5

Determine its reported IC50: CC(C)C[C@H](N)C(=O)NS(=O)(=O)c1cccc(-c2ccnc(Cl)n2)c1 6.23

Determine its reported IC50: CC(C)C[C@H](N)C(=O)NS(=O)(=O)c1cccc(-c2ccccc2)c1 0.65

Determine its reported IC50: CNc1cc(-c2cccc(S(=O)(=O)NC(=O)[C@@H](N)CC(C)C)c2)nc(N)n1 0.26

Determine its reported IC50: CC(C)C[C@H](N)C(=O)NS(=O)(=O)c1cccc2cccnc12 16.8
